All values here come from patent US20240067672A1.

experiment: Determination of solubility (HPLC); format: physicochemical; details: saline or isotonic, thermodynamic from solid; normal saline; 37° C. overnight; n = 3; read-out: Solubility, Normal Saline
value kind: solubility
Kindly write the number and append the unit.

(Q) If you can, please state the reported solubility value of COc1ccc(-c2oc3c(CC=C(C)C)c(O)cc(O)c3c(=O)c2O)cc1 [Icaritin, reference compound] .
(A) 8.1 µg/mL

----------
assay: Determination of solubility (HPLC); type: physicochemical
value kind: Solubility, 0.1% Tween 80

Here are 5 compounds together with their reported answers.
COc1ccc(-c2oc3c(CC=C(C)C)c(O)cc(O)c3c(=O)c2OC(=O)CCC(=O)OCCCCOCc2cn(CCOC3OC(CO)C(O)C(O)C3O)nn2)cc1 (centres unmarked)
8.384 ± 1.363 µg/mL
COc1ccc(-c2oc3c(CC=C(C)C)c(O)cc(O)c3c(=O)c2OC(=O)CCC(=O)OCCOCc2cn(CCOCCOC3OC(CO)C(O)C(O)C3O)nn2)cc1 (centres unmarked)
Insoluble
COc1ccc(-c2oc3c(CC=C(C)C)c(O)cc(O)c3c(=O)c2OC(=O)CCC(=O)OCCOCc2cn(C3O[C@H](CO)[C@@H](O)[C@H](O)[C@H]3O)nn2)cc1 (some centres unmarked)
Insoluble
COc1ccc(-c2oc3c(CC=C(C)C)c(O)cc(O)c3c(=O)c2OC(=O)CCC(=O)OCCCOCc2cn(CCOCCOC3OC(CO)C(O)C(O)C3O)nn2)cc1 (centres unmarked)
6.123 ± 0.931 µg/mL
COc1ccc(-c2oc3c(CC=C(C)C)c(O)cc(O)c3c(=O)c2OC(=O)CCC(=O)OCCOCCOCc2cn(CCO[C@@H]3O[C@H](CO)[C@@H](O)[C@H](O)[C@H]3O)nn2)cc1
Insoluble

State the recorded Solubility, 0.1% Tween 80 for every item in the following list.
1. COc1ccc(-c2oc3c(CC=C(C)C)c(O)cc(O)c3c(=O)c2OC(=O)CCC(=O)OCCOCCOCCOCc2cn(C3OC(CO)C(O)C(O)C3O)nn2)cc1 (centres unmarked)
2. COc1ccc(-c2oc3c(CC=C(C)C)c(O)cc(O)c3c(=O)c2OC(=O)CCC(=O)OCCN(CCOCc2cn(CCO[C@@H]3O[C@H](CO)[C@@H](O)[C@H](O)[C@H]3O)nn2)c2ccccc2)cc1
3. COc1ccc(-c2oc3c(CC=C(C)C)c(O)cc(O)c3c(=O)c2OC(=O)CCC(=O)NCCCCCOCc2cn(C3O[C@H](CO)[C@@H](O)[C@H](O)[C@H]3O)nn2)cc1 (some centres unmarked)
4. COc1ccc(-c2oc3c(CC=C(C)C)c(O)cc(O)c3c(=O)c2OC(=O)CCC(=O)OCCOCc2cn(CCOC3OC(CO)C(O)C(O)C3O)nn2)cc1 (centres unmarked)
5. COc1ccc(-c2oc3c(CC=C(C)C)c(O)cc(O)c3c(=O)c2OC(=O)CCC(=O)OCCCCOCc2cn(CCOCCOC3OC(CO)C(O)C(O)C3O)nn2)cc1 (centres unmarked)

(A)
1: 6.508 ± 0.742 µg/mL; 2: Insoluble; 3: Insoluble; 4: 5.697 ± 1.312 µg/mL; 5: Insoluble

(Q) If you can, please state the reported Solubility, 0.1% Tween 80 value of COc1ccc(-c2oc3c(CC=C(C)C)c(O)cc(O)c3c(=O)c2OC(=O)CCC(=O)OCc2cn(CCOC3OC(CO)C(O)C(O)C3O)nn2)cc1 (centres unmarked) .
(A) 13.819 ± 1.323 µg/mL
